Experiment: Absorption characteristics: transmission spectrum of near-infrared absorbing layer of NIR filter (UV-visible spectrophotometer)
Assay type: physicochemical
Conditions: transparent resin polycarbonate SP3810, nd(B) 1.63, film thickness 2.8 μm
metric: Is value (nd(B)×(λa-λc))
Hey, just send me the number, nothing else.

CCCC(C)(C)C(=O)Nc1cc2c(cc1C1=C([O-])C(=c3cc4c(cc3NC(=O)C(C)(C)CCC)=[N+](C)C(C)C4(C)C)C1=O)C(C)(C)C(C)N2C (stereo not drawn) | 111.2

So what does the record say about Is value (nd(B)×(λa-λc)) for CCCCCCCCCCCC(=O)Nc1cc2c(cc1C1=C([O-])C(=c3cc4c(cc3NC(=O)CCCCCCCCCCC)=[N+](C)C(C)C4(C)C)C1=O)C(C)(C)C(C)N2C (stereo not drawn) [Example A11-25, reference compound] ? 119.3

---

Entries and their 430 nm to 600 nm Average transmittance values follow.
Test: Absorption characteristics: transmission spectrum of near-infrared absorbing layer of NIR filter (UV-visible spectrophotometer)
Assay type: physicochemical
Conditions: transparent resin polycarbonate EP5000, nd(B) 1.63, film thickness 2.4 μm
The response must be a number in % with no trailing unit.

Check out these entries, answers already filled in.
Cc1ccc(C)c(OCCCC(C)(C)C(=O)Nc2cc3c(cc2C2=C([O-])C(=c4cc5c(cc4NC(=O)C(C)(C)CCCOc4cc(C)ccc4C)=[N+](C)C(C)C5(C)C)C2=O)C(C)(C)C(C)N3C)c1 (centres unmarked) | 96.1
CCCC(CCC)C(=O)Nc1cc2c(cc1C1=C([O-])C(=c3cc4c(cc3NC(=O)C(CCC)CCC)=[N+](C)C(C)C4(C)C)C1=O)C(C)(C)C(C)N2C (centres unmarked) | 96.5

I am curious: what 430 nm to 600 nm Average transmittance value has been reported for CCCCC(CC)C(=O)Nc1cc2c(cc1C1=C([O-])C(=c3cc4c(cc3NC(=O)C(CC)CCCC)=[N+](C)C(C)C4(C)C)C1=O)C(C)(C)C(C)N2C (centres unmarked) ? 96.2

Lookup CCCCCCCCCCCC(=O)Nc1cc2c(cc1C1=C([O-])C(=c3cc4c(cc3NC(=O)CCCCCCCCCCC)=[N+](C)C(C)C4(C)C)C1=O)C(C)(C)C(C)N2C (centres unmarked) [Example A11-25, reference compound] 95.5

Next record, please: CCCCC(CC)C(=O)Nc1cc2c(cc1C1=C([O-])C(=c3cc4c(cc3NC(=O)C(CC)CCCC)=[N+](C(C)C)C(C)C4(C)C)C1=O)C(C)(C)C(C)N2C(C)C (centres unmarked) 96.9

---

Experiment: Absorption characteristics: transmission spectrum of near-infrared absorbing layer of NIR filter (UV-visible spectrophotometer)
Format: physicochemical
Settings: transparent resin polycarbonate SP3810, nd(B) 1.63, film thickness 1.0 μm
λa: recorded values

CCCC(C)(C)C(=O)Nc1cc2c(cc1C1=C([O-])C(=c3cc4c(cc3NC(=O)C(C)(C)CCC)=[N+](C)C(C)C4(C)C)C1=O)C(C)(C)C(C)N2C (stereo not drawn) [Example A11-14] | 689 nm
Cc1ccc(C)c(OCCCC(C)(C)C(=O)Nc2cc3c(cc2C2=C([O-])C(=c4cc5c(cc4NC(=O)C(C)(C)CCCOc4cc(C)ccc4C)=[N+](C)C(C)C5(C)C)C2=O)C(C)(C)C(C)N3C)c1 (stereo not drawn) [Example A11-13] | 689 nm
CC(CCC(C(=O)Nc1cc2c(cc1C1=C([O-])C(=c3cc4c(cc3NC(=O)C(CCC(C)CC(C)(C)C)C(C)CC(C)(C)C)=[N+](C)C(C)C4(C)C)C1=O)C(C)(C)C(C)N2C)C(C)CC(C)(C)C)CC(C)(C)C (stereo not drawn) [Example A11-4] | 693 nm
CC(=O)Nc1cc2c(cc1C1=C([O-])C(=c3cc4c(cc3NC(C)=O)=[N+](C)C(C)C4(C)C)C1=O)C(C)(C)C(C)N2C (stereo not drawn) [Example A11-20, reference compound] | 693 nm
CCCCCCCCCCCC(=O)Nc1cc2c(cc1C1=C([O-])C(=c3cc4c(cc3NC(=O)CCCCCCCCCCC)=[N+](C)C(C)C4(C)C)C1=O)C(C)(C)C(C)N2C (stereo not drawn) [Example A11-25, reference compound] | 693 nm

Which λa is reported for this compound? CCCCC(CC)C(=O)Nc1cc2c(cc1C1=C([O-])C(=c3cc4c(cc3NC(=O)C(CC)CCCC)=[N+](C)C(C)C4(C)C)C1=O)C(C)(C)C(C)N2C (stereo not drawn) [Example A11-2] 694 nm

And CCCCC(CC)C(=O)Nc1cc2c(cc1C1=C([O-])C(=c3cc4c(cc3NC(=O)C(CC)CCCC)=[N+](C(C)C)C(C)C4(C)C)C1=O)C(C)(C)C(C)N2C(C)C (stereo not drawn) [Example A11-7] ? 700 nm

Thanks! And CCCCCCCC(=O)Nc1cc2c(cc1C1=C([O-])C(=c3cc4c(cc3NC(=O)CCCCCCC)=[N+](C)C(C)C4(C)C)C1=O)C(C)(C)C(C)N2C (stereo not drawn) [Example A11-24, reference compound] ? 693 nm

Proceed to CCCC(CCC)C(=O)Nc1cc2c(cc1C1=C([O-])C(=c3cc4c(cc3NC(=O)C(CCC)CCC)=[N+](C)C(C)C4(C)C)C1=O)C(C)(C)C(C)N2C (stereo not drawn) [Example A11-1] 694 nm
